# EXPERIMENT_DESCRIPTION: Half life in human liver microsomes
# Type: ADME, Microsome
PROPERTY: half-life (min)
Please state the figure in min; there is no need to write the unit.

Ask | GET /values?readout=half-life&item= CC(=O)[C@H]1CC[C@H]2[C@@H]3CC[C@H]4C[C@@H](NS(C)(=O)=O)CC[C@]4(C)[C@H]3CC[C@]12C
Reply | 135

Ask | GET /values?readout=half-life&item= CCNC(=O)N[C@H]1CC[C@@]2(C)[C@@H](CC[C@@H]3[C@@H]2CC[C@]2(C)C(=O)CC[C@@H]32)C1
Reply | 24.4

Ask | GET /values?readout=half-life&item= C[C@]12CC[C@H](NS(N)(=O)=O)C[C@@H]1CC[C@@H]1[C@@H]2CC[C@]2(C)[C@@H](C(=O)CO)CC[C@@H]12
Reply | 48.9
